Assay: NCI Yeast Anticancer Drug Screen. Data for the rad50 strain (AID 155);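 note: 0% = growth of vehicle-only cultures of the same strain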
Details: S. cerevisiae rad50 strain growth inhibition; at 5.0 µM (retest, dose inferred, filed as 0.5); hits give high values
This is part of a sample that, as a whole, favours compounds with a hit. Of some 79,000 tested, about 15% had one in any assay.
Class class 1: growth inhibition at least 20%. Class class 0: growth inhibition below 20%.

Item CCCOC(=O)CCCC(=O)N(CC)CC with growth inhibition of 20% or above? class 0

Check the entry N#CCC(=O)N/N=C(/CC1(O)C(=O)Nc2c(Cl)cc(Cl)cc21)c1ccccc1 (centres undefined) : does growth inhibition equal or exceed 20%? class 0

Record C(#Cc1ccccc1)Sc1ccccc1 ; criterion: growth inhibition no lower than 20%. Met? class 0

Does NC(C(=O)O)C1=CCCCCC1 (centres undefined) have a reported growth inhibition of at least 20%? class 0

Is reported growth inhibition greater than or equal to 20% here: Oc1cccc2ccc(SSc3ccc4cccc(O)c4n3)nc12 class 1

Threshold query (growth inhibition >= 20%) on CCCCCCCCCCCCCCCC(=O)N1CCOCC1 class 0

Quick check, growth inhibition >= 20%? CC(=O)Nc1ccc(C#N)c2ccccc12 class 1

hey, is growth inhibition for this one >= 20%? CN(C)C(=O)Nc1ccc(Cc2ccc(NC(=O)N(C)C)cc2)cc1 class 0

growth inhibition >= 20% for CC(Nc1ccc(Cl)c(Cl)c1)c1ccncc1 (centres undefined) ? class 0

Say whether Cc1c(CNc2ccc(Cl)c(Cl)c2Cl)cnc2nc(N)nc(N)c12 shows growth inhibition of 20% or more. class 1

Does growth inhibition meet or surpass 20% for COC1OC(CN=[N+]=[N-])C(OC(=O)c2ccccc2)C(OC(C)=O)C1OC(C)=O (centres undefined) ? class 0

Could you verify whether the entry CCCCc1c2c(nc3c1CCCC3O)/C(=C/c1ccccc1)CCC2 (centres undefined) shows growth inhibition of no less than 20%? class 0

Tell me whether growth inhibition is at least 20% here: COc1ccc(C(CC(=O)c2ccc(C)cc2)Sc2ccccc2N)cc1 (centres undefined) class 1

State whether the measured growth inhibition reaches 20%, counting equality as reaching it, for O=C1C(=O)c2ccc(Br)cc2C(O)=C1C(c1ccccc1)c1ccccc1 class 1

Is growth inhibition for CCOc1ccccc1N=Nc1ccc2oc(=O)c(C(=O)Nc3cccc(C)c3)cc2c1 at or above 20%? class 0

Answer whether growth inhibition of CS(C)=O.[Cl-].[Cl-].[NH-]CC(O)CN(Cc1ccccc1)CC(O)CN.[Pt] (centres undefined) is greater than or equal to 20%. class 0

Please indicate if the recorded growth inhibition for COc1ccc(C2=NN(c3ccccc3)C[N+](c3ccc(OC)cc3)=N2)cc1 meets or exceeds 20%. class 1

hey, is growth inhibition for this one >= 20%? Cc1occc1C(=S)Nc1ccc(Cl)c(COC(C)(C)C)c1 class 1

Given CC1(C)CC(=O)C(/C=N/c2nc(-c3cccc([N+](=O)[O-])c3)cs2)=C(O)C1 , state whether its growth inhibition is at least 20%. class 0

Given the entry COC(=O)/C=C(\Cl)C(=O)OC , answer whether its growth inhibition meets or surpasses 20%. class 0

Does Cc1cccc(C)c1NC(=O)CSC(N)=O have a reported growth inhibition of at least 20%? class 0

Say whether CCCCN1C(=O)C[C@H]2[C@@H]3CCc4cc(OCCN5CCCC5)ccc4[C@H]3CC[C@]2(C)C1=O shows growth inhibition of 20% or more. class 1

State whether the measured growth inhibition reaches 20%, counting equality as reaching it, for CCN(CC)CCCC(=O)Nc1cc(OC)cc2cccnc12 class 0

Given the entry Cc1ccc2c(n1)C(=O)C=CC2=O , answer whether its growth inhibition meets or surpasses 20%. class 1
